Data provenance is the supplement of paper PMC11208160.

- Protocol: recombinant UMI read abundance after kanamycin selection (control-corrected) (log10(CPM+1)); higher = more efficient recombination; extreme values may be limits of the assay; sequences stand for … in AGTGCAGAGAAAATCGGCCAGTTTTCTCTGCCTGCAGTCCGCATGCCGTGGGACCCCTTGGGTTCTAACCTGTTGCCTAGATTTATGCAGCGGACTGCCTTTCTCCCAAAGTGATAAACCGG…AGGTTGGTTTCACT; site = the 11-nt donor
Please enter YES where recombinant UMI read abundance (log10) is greater than or equal to 0.2, and NO where it is lower.

Query: Please indicate if the recorded recombinant UMI read abundance (log10) for ATGGTTTCATGGACCGGTTTTCCCGGTAATCCGTATTTGTA (site ATGGTTTCTTA) meets or exceeds 0.2.
Reply: YES

Query: Please indicate if the recorded recombinant UMI read abundance (log10) for ACACGTCCATGGACCGGTTTTCCCGGTAATCCGTATTTGAC (site ACACTTCCTGT) meets or exceeds 0.2.
Reply: NO

Query: Please indicate if the recorded recombinant UMI read abundance (log10) for CAAGTCACATGGACCGGTTTTCCCGGTAATCCGTATTTGAG (site CAAGTCACTCC) meets or exceeds 0.2.
Reply: YES

Query: Please indicate if the recorded recombinant UMI read abundance (log10) for TCGTATTCATGGACCGGTTTTCCCGGTAATCCGTATTTGTT (site TCGTATTCTAA) meets or exceeds 0.2.
Reply: YES

Query: Please indicate if the recorded recombinant UMI read abundance (log10) for AGCTCAGCATGGACCGGTTTTCCCGGTAATCCGTATTTGTG (site AGCTCAGCTCG) meets or exceeds 0.2.
Reply: NO

Query: Please indicate if the recorded recombinant UMI read abundance (log10) for TATGTCCCATGGACCGGTTTTCCCGGTAATCCGTATTTGGA (site TATGTCCCTTC) meets or exceeds 0.2.
Reply: NO

Query: Please indicate if the recorded recombinant UMI read abundance (log10) for ACCAGTGCATGGACCGGTTTTCCCGGTAATCCGTATTTGGT (site ACGAGTGCTAC) meets or exceeds 0.2.
Reply: NO

Query: Please indicate if the recorded recombinant UMI read abundance (log10) for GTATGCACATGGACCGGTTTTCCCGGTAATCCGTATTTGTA (site GTATGTACTTA) meets or exceeds 0.2.
Reply: YES

Query: Please indicate if the recorded recombinant UMI read abundance (log10) for TATCCCGCATGGACCGGTTTTCCCGGTAATCCGTATTTGTT (site TATCCCGCTAA) meets or exceeds 0.2.
Reply: YES

Query: Please indicate if the recorded recombinant UMI read abundance (log10) for TAGCCTGCATGGACCGGTTTTCCCGGTAATCCGTATTTGGT (site TAGCCTACTAC) meets or exceeds 0.2.
Reply: NO

Query: Please indicate if the recorded recombinant UMI read abundance (log10) for CCATCCCCATGGACCGGTTTTCCCGGTAATCCGTATTTGAT (site CCATCCCCTAT) meets or exceeds 0.2.
Reply: NO

Query: Please indicate if the recorded recombinant UMI read abundance (log10) for GTCGGCCCATGGACCGGTTTTCCCGGTAATCCGTATTTGTG (site GTCGGCCCTCA) meets or exceeds 0.2.
Reply: NO

Query: Please indicate if the recorded recombinant UMI read abundance (log10) for CCCTTCTCATGGACCGGTTTTCCCGGTAATCCGTATTTGGT (site CCCTTCTCTCC) meets or exceeds 0.2.
Reply: NO

Query: Please indicate if the recorded recombinant UMI read abundance (log10) for CCCTAGCCATGGACCGGTTTTCCCGGTAATCCGTATTTGAC (site CCCTAGCCTGT) meets or exceeds 0.2.
Reply: NO

Query: Please indicate if the recorded recombinant UMI read abundance (log10) for AGAAAGTCATGGACCGGTTTTCCCGGTAATCCGTATTTGCT (site AGAAAGCCTAG) meets or exceeds 0.2.
Reply: NO

Query: Please indicate if the recorded recombinant UMI read abundance (log10) for CGTTGCACATGGACCGGTTTTCCCGGTAATCCGTATTTGGG (site CGTTGCACTCC) meets or exceeds 0.2.
Reply: NO

Query: Please indicate if the recorded recombinant UMI read abundance (log10) for ATCCCGGCATGGACCGGTTTTCCCGGTAATCCGTATTTGGG (site ATCCCGGCTCC) meets or exceeds 0.2.
Reply: NO

Query: Please indicate if the recorded recombinant UMI read abundance (log10) for TAGGAATCATGGACCGGTTTTCCCGGTAATCCGTATTTGAG (site TAGGAATCTCA) meets or exceeds 0.2.
Reply: YES

----------
Would you kindly list recombinant barcode read abundance (log10) for each of these sequences?
- Protocol: recombinant barcode read abundance after kanamycin selection (control-corrected) (log10(CPM+1)); higher = more efficient recombination; sequences stand for … in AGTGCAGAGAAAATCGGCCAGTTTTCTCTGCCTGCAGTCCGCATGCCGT…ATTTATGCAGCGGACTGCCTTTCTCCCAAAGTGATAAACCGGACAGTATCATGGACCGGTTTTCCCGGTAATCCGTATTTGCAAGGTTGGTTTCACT; site = the 11-nt target
Reply with just the number.

Query: Note recombinant barcode read abundance (log10) for the sequence shown: ACGGGACAATGGGTTCTAACCTGTTGCAGAG [ACGGGACCTCT_LTGcore_AA_RTGcore_CT] (site ACGGGACCTCT) (LTG core: AA, RTG core: CT)
Reply: 0.0324

Query: Note recombinant barcode read abundance (log10) for the sequence shown: GGTGCCCCCTGGGTTCTAACCTGTTGCCGAG [GGTGCCCCTCG_LTGcore_CC_RTGcore_CT] (site GGTGCCCCTCG) (LTG core: CC, RTG core: CT)
Reply: 0.15

Query: Note recombinant barcode read abundance (log10) for the sequence shown: AGGCGGGCTTGGGTTCTAACCTGTTGCGGTA [AGGCGGGCTCC_LTGcore_CT_RTGcore_TA] (site AGGCGGGCTCC) (LTG core: CT, RTG core: TA)
Reply: 0.138

Query: Note recombinant barcode read abundance (log10) for the sequence shown: CGAGCCCTATGGGTTCTAACCTGTTGCTGAG [CGAGCCCCTCA_LTGcore_TA_RTGcore_CT] (site CGAGCCCCTCA) (LTG core: TA, RTG core: CT)
Reply: 0.312

Query: Note recombinant barcode read abundance (log10) for the sequence shown: GCGGGACTTTGGGTTCTAACCTGTTGCCTAG [GCGGGACCTAG_LTGcore_TT_RTGcore_CT] (site GCGGGACCTAG) (LTG core: TT, RTG core: CT)
Reply: 0.13

Query: Note recombinant barcode read abundance (log10) for the sequence shown: TGTATTCCGTGGGTTCTAACCTGTTGCCTCG [TGTATTCCTAG_LTGcore_CG_RTGcore_CG] (site TGTATTCCTAG) (LTG core: CG, RTG core: CG)
Reply: 0.0909

Query: Note recombinant barcode read abundance (log10) for the sequence shown: TCTACCCTGTGGGTTCTAACCTGTTGCTGCA [TCTACCCCTCA_LTGcore_TG_RTGcore_TG] (site TCTACCCCTCA) (LTG core: TG, RTG core: TG)
Reply: 0.0126

Query: Note recombinant barcode read abundance (log10) for the sequence shown: GGGCGGACTTGGGTTCTAACCTGTTGCGGGC [GGGCGGACTCC_LTGcore_CT_RTGcore_GC] (site GGGCGGACTCC) (LTG core: CT, RTG core: GC)
Reply: 0.131

Query: Note recombinant barcode read abundance (log10) for the sequence shown: GGACACCCTTGGGTTCTAACCTGTTGCCTTA [GGACACCCTAG_LTGcore_CT_RTGcore_TA] (site GGACACCCTAG) (LTG core: CT, RTG core: TA)
Reply: 1.36

Query: Note recombinant barcode read abundance (log10) for the sequence shown: ACGGGACCTTGGGTTCTAACCTGTTGCAGAC [ACGGGACCTCT_LTGcore_CT_RTGcore_GT] (site ACGGGACCTCT) (LTG core: CT, RTG core: GT)
Reply: 0.9

Query: Note recombinant barcode read abundance (log10) for the sequence shown: TGTATTCCTTGGGTTCTAACCTGTTGCCTCT [TGTATTCCTAG_LTGcore_CT_RTGcore_AG] (site TGTATTCCTAG) (LTG core: CT, RTG core: AG)
Reply: 0.0303

Query: Note recombinant barcode read abundance (log10) for the sequence shown: GTCGCCCGTTGGGTTCTAACCTGTTGCTAAC [GTCGCCCCTTA_LTGcore_GT_RTGcore_GT] (site GTCGCCCCTTA) (LTG core: GT, RTG core: GT)
Reply: 0.146

Query: Note recombinant barcode read abundance (log10) for the sequence shown: AAACAGTTGTGGGTTCTAACCTGTTGCCTAG [AAACAGTCTAG_LTGcore_TG_RTGcore_CT] (site AAACAGTCTAG) (LTG core: TG, RTG core: CT)
Reply: 0.029

Query: Note recombinant barcode read abundance (log10) for the sequence shown: GTCGCCCCTTGGGTTCTAACCTGTTGCTATA [GTCGCCCCTTA_LTGcore_CT_RTGcore_TA] (site GTCGCCCCTTA) (LTG core: CT, RTG core: TA)
Reply: 0.0812

Query: Note recombinant barcode read abundance (log10) for the sequence shown: GCGCGACCTTGGGTTCTAACCTGTTGCTTAT [GCGCGACCTAA_LTGcore_CT_RTGcore_AT] (site GCGCGACCTAA) (LTG core: CT, RTG core: AT)
Reply: 0.103

Query: Note recombinant barcode read abundance (log10) for the sequence shown: GAGCCCACTTGGGTTCTAACCTGTTGCCTGG [GAGCCCACTAG_LTGcore_CT_RTGcore_CC] (site GAGCCCACTAG) (LTG core: CT, RTG core: CC)
Reply: 0.911

Query: Note recombinant barcode read abundance (log10) for the sequence shown: GGGCGTGGTTGGGTTCTAACCTGTTGCCTAG [GGGCGTGCTAG_LTGcore_GT_RTGcore_CT] (site GGGCGTGCTAG) (LTG core: GT, RTG core: CT)
Reply: 0.0791

Query: Note recombinant barcode read abundance (log10) for the sequence shown: GGTGCCCCGTGGGTTCTAACCTGTTGCCGCG [GGTGCCCCTCG_LTGcore_CG_RTGcore_CG] (site GGTGCCCCTCG) (LTG core: CG, RTG core: CG)
Reply: 0.329

Query: Note recombinant barcode read abundance (log10) for the sequence shown: GAGTCCACCTGGGTTCTAACCTGTTGCGTGG [GAGTCCACTAC_LTGcore_CC_RTGcore_CC] (site GAGTCCACTAC) (LTG core: CC, RTG core: CC)
Reply: 0.0684

Query: Note recombinant barcode read abundance (log10) for the sequence shown: GTCGCCCCTTGGGTTCTAACCTGTTGCTAAG [GTCGCCCCTTA_LTGcore_CT_RTGcore_CT] (site GTCGCCCCTTA) (LTG core: CT, RTG core: CT)
Reply: 0.234

Query: Note recombinant barcode read abundance (log10) for the sequence shown: TGATACCATTGGGTTCTAACCTGTTGCGTAT [TGATACCCTAC_LTGcore_AT_RTGcore_AT] (site TGATACCCTAC) (LTG core: AT, RTG core: AT)
Reply: 0.0803

Query: Note recombinant barcode read abundance (log10) for the sequence shown: GGGAGCCCTTGGGTTCTAACCTGTTGCTGCA [GGGAGCCCTCA_LTGcore_CT_RTGcore_TG] (site GGGAGCCCTCA) (LTG core: CT, RTG core: TG)
Reply: 0.122
